- protocolText: small-molecule microarray binders of probe aWnt5a, primary screen, biochemical, biotinylated probe, 635/667 nm fluorescence (AID 1113);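 also: score merges 667 nm fluorescence intensity with signal-to-noise per printed feature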
- assaySetup: higher = more signal
As shown below, each of these compounds has a reported composite z-score value.
Response field accepts a number only; no unit should be typed.

1) C[C@@]1([C@@H](NS(=O)(=O)c2cccc3cccnc23)c2ccc(-c3ccccc3)cc2)C[C@H]1C1CCCCC1; 0.122

Query COCCOC(=O)N1C(=O)[C@@]2(c3cc(C#CCNC(N)=O)ccc31)[C@H](C(=O)N1CCN(c3ncccn3)CC1)[C@H]1C(=O)O[C@H](c3ccccc3)[C@H](c3ccccc3)N1[C@@H]2c1ccc(O)cc1 yields composite z-score of -0.408

composite z-score reading for CC(C)C[C@@H]1NC(=O)[C@H]2C[C@@H](C(=O)O)[C@@H](c3cccc(OCCO)c3)N2C1=O : -0.0704

Reported composite z-score ( CC(=O)NCCCC[C@@H]1NC(=O)[C@H]2C[C@@H](C(=O)NCCCCCN)[C@@H](c3ccc(O)cc3)N2C1=O ) = -0.1

For C=C(C(=O)CC[C@H](OC(=O)c1ccccc1-c1ccccc1C(=O)O)c1ccc(OCCO)cc1)C(C)C the compound record lists composite z-score as 0.204

get_value(item= C=CCOC(=O)[C@H]1[C@@H]2C(=O)O[C@@H](c3ccccc3)[C@@H](c3ccccc3)N2[C@@H](c2ccc(OCCOC(=O)[C@H]3C[C@H]4C(=O)NCC(=O)N4[C@H]3c3ccc(O)cc3)cc2)[C@]12C(=O)Nc1ccccc12 , readout=composite z-score) returns -0.0758
